Recorded values, source paper PMC5597618.

Exercise: state measured Ki for each of the compounds provided.
assayed system: Cathepsin H (Homo sapiens)
Construct: native cathepsin H was isolated from human liver
Sequence (P09668 116-335 limits assumed, other chains not shown): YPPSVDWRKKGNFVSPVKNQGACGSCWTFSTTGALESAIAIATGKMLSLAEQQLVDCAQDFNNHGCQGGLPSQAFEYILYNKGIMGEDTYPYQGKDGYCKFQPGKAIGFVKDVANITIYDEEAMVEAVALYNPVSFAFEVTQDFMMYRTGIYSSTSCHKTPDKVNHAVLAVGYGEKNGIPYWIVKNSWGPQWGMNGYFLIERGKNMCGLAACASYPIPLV
measurement description: Ki against cathepsin H (Z-R-AMC)
experimental context: SigmaPlot at 3 different substrate concentrations; pH 6.8

# compound, Ki
rows = [
    ("Cc1ccccc1-n1cnnc1SCC(=O)c1ccc2c(c1)OCCO2 [Compound 20]", "> 500 µM"),
    ("Cn1cnc(SCC(=O)c2ccc3c(c2)OCCO3)n1 [Compound 12]", "> 500 µM"),
]

Consider the additional compound presented here.
Prompt line: What value of Ki has been reported for the following compound? CC(C)n1cnnc1SCC(=O)c1ccc2c(c1)OCCO2 [Compound 22]
Response line: > 1000 µM

----------
assayed system: cathepsin X (Homo sapiens)
Sequence (Q9UBR2 62-303): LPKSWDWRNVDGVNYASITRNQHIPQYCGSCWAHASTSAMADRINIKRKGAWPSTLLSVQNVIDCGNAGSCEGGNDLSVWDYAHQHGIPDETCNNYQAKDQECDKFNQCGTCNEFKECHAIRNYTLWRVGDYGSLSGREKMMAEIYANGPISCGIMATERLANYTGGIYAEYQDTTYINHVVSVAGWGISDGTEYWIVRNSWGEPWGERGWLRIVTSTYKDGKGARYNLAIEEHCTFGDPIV
measurement description: Determination of relative inhibition of cathepsin X
Assay type: biochemical
Design: made in house; host or cells: Pichia pastoris
experimental context: second group; 50 μM compound; 1 h preincubation; read-out: % inhibition (1 h preincubation)
Classification field: condition met = inhibition at 50 µM at or over 70%; condition not met = inhibition at 50 µM under 70%.

As a guide, the following entries are already answered.
# compound, group label
records = [
    ("Nc1cc(N)nc(SCC(=O)c2ccc3c(c2)OCCO3)n1", "condition not met"),
    ("CC(C)n1cnnc1SCC(=O)c1ccc2c(c1)OCCO2", "condition met"),
    ("O=C(CSc1nnc(N2CCCC2)n1C1CC1)c1ccc2c(c1)OCCO2", "condition met"),
    ("COc1ccc(C(=O)C(C)Sc2nncn2C)cc1OC (stereo not drawn)", "condition not met"),
]

Shifting focus to the compound that follows.
Prompt line: Is reported inhibition at 50 µM greater than or equal to 70% here: Nc1nc(SCC(=O)c2ccc3c(c2)OCO3)n[nH]1
Response line: condition not met
